Tested on: NK-92 (IL-2 2.5 ng/mL);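 further: normalised to DMSO-only wells as negative and benzethonium chloride as positive control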
Assay: percent inhibition of viability; higher = more inhibition
Conditions: 72 h; 1 nM
readout label: percent inhibition of viability (%)

molecule="Cc1ccc(NC(=O)c2ccc(CN3CCN(C)CC3)cc2)cc1Nc1nccc(-c2cccnc2)n1 [Imatinib] (max concentration tested 10000 nM)" target="NK-92 (IL-2 2.5 ng/mL)" output_unit=% recorded_measurement=-3.36
molecule="Cc1nc(Nc2ncc(C(=O)Nc3c(C)cccc3Cl)s2)cc(N2CCN(CCO)CC2)n1 [Dasatinib] (max concentration tested 1000 nM)" target="NK-92 (IL-2 2.5 ng/mL)" output_unit=% recorded_measurement=-20
molecule="CCC1=C[C@@H]2CN(C1)Cc1c([nH]c3ccccc13)[C@@](C(=O)OC)(c1cc3c(cc1OC)N(C)[C@H]1[C@@](O)(C(=O)OC)[C@H](OC(C)=O)[C@]4(CC)C=CCN5CC[C@]31[C@@H]54)C2 [Vinorelbine] (max concentration tested 10000 nM)" target="NK-92 (IL-2 2.5 ng/mL)" output_unit=% recorded_measurement=-12.5
molecule="CC(C)N(CCCNC(=O)Nc1ccc(C(C)(C)C)cc1)C[C@H]1O[C@@H](n2cc(Br)c3c(N)ncnc32)[C@H](O)[C@@H]1O [SGC0946] (max concentration tested 10000 nM)" target="NK-92 (IL-2 2.5 ng/mL)" output_unit=% recorded_measurement=-2.74
molecule="Cn1cc(CNCC2CCN(c3ncc(C(=O)NO)cn3)CC2)c2ccccc21 [Quisinostat] (max concentration tested 1000 nM)" target="NK-92 (IL-2 2.5 ng/mL)" output_unit=% recorded_measurement=-6.5
molecule="O=C(CCBr)N1CCN(C(=O)CCBr)CC1 [Pipobroman] (max concentration tested 10000 nM)" target="NK-92 (IL-2 2.5 ng/mL)" output_unit=% recorded_measurement=-22.2
molecule="CCCCCOC(=O)Nc1nc(=O)n([C@@H]2O[C@H](C)[C@@H](O)[C@H]2O)cc1F [Capecitabine] (max concentration tested 10000 nM)" target="NK-92 (IL-2 2.5 ng/mL)" output_unit=% recorded_measurement=-10.2
molecule="CNC(=O)c1ccc(C)c(-n2c(C)cc(OCc3ccc(F)cc3F)c(Br)c2=O)c1 (max concentration tested 1000 nM)" target="NK-92 (IL-2 2.5 ng/mL)" output_unit=% recorded_measurement=-6.84
molecule="C[C@]12C=CC(=O)C=C1CC[C@@H]1[C@@H]2C(=O)C[C@@]2(C)[C@H]1CC[C@]2(O)C(=O)CO [Prednisone] (max concentration tested 10000 nM)" target="NK-92 (IL-2 2.5 ng/mL)" output_unit=% recorded_measurement=-5.87
molecule="CN(C)/N=N/c1[nH]cnc1C(N)=O [Dacarbazine] (max concentration tested 10000 nM)" target="NK-92 (IL-2 2.5 ng/mL)" output_unit=% recorded_measurement=-11.1
molecule="CC(=O)[C@]1(O)Cc2c(O)c3c(c(O)c2[C@@H](O[C@H]2C[C@H](N)[C@H](O)[C@H](C)O2)C1)C(=O)c1ccccc1C3=O [Idarubicin] (max concentration tested 1000 nM)" target="NK-92 (IL-2 2.5 ng/mL)" output_unit=% recorded_measurement=7.35
molecule="CCc1c(C(=O)C(N)=O)c2c(OCC(=O)O)cccc2n1Cc1ccccc1 [Varespladib] (max concentration tested 10000 nM)" target="NK-92 (IL-2 2.5 ng/mL)" output_unit=% recorded_measurement=-21.4
